Cited source for all entries: PubChem BioAssay AID1159580

Answer each item with its documented normalized growth.
- protocolDetails: chemical genetic growth profiling, strain panel (AID 1159580);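 note: tested at 20 µM; growth read once vehicle control cultures reached saturation at 30 °C; 1 = growth at the plate median or of vehicle wells; lower values mean less growth of the strain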
- cond: S. cerevisiae deletion strains, growth OD, locus YLR027C, strain aat2, hits give low values
The whole screen tested about 5,500 compounds, of which about 2,000 (36%) were called active. Not shown: some 18% with an inconclusive outcome. The list shows a part of the results.
Reply briefly: the number, and no unit.

Short answer for `O=c1c(O)c(-c2ccc(O)cc2)oc2ccccc12` : normalized growth was 0.695

Short answer for `O=C(O)c1cc(=O)c2ccccc2[nH]1` : normalized growth was 0.989

Short answer for Cc1cc2nc3c(=O)[nH]c(=O)nc-3n(CC(O)C(O)C(O)CO)c2cc1C (stereo not given) : normalized growth was 0.98

Short answer for CO/N=C(/C(=O)NC1C(=O)N2C(C(=O)OCOC(=O)C(C)(C)C)=C(/C=C\c3scnc3C)CSC12)c1csc(N)n1 (stereo not given) : normalized growth was 1

Short answer for COC1=CC23CCCN2CCc2cc4c(cc2C3C1O)OCO4 (stereo not given) : normalized growth was 1.01

Short answer for `O=C(/C=C/c1ccc(O)cc1)c1ccccc1O` : normalized growth was 0.271

Short answer for `CC(=O)NS(=O)(=O)c1ccc(N)cc1` : normalized growth was 1.01

Short answer for `CNC(=O)Oc1ccccc1OC(C)C` : normalized growth was 0.995

Short answer for `O=C(Nc1ccc([N+](=O)[O-])cc1Cl)c1cc(Cl)ccc1O` : normalized growth was 0.92

Short answer for `CN1CCN(C2=Nc3cc(Cl)ccc3Nc3ccccc32)CC1` : normalized growth was 0.988

Short answer for `O=c1c(O)c(-c2ccccc2)oc2ccc3occc3c12` : normalized growth was 0.795

Short answer for `COc1cc(Cc2cnc(N)nc2N)cc(OC)c1OC` : normalized growth was 1.01

Short answer for CC(=O)OC[C@@]1(O)C[C@@]23CCC4c5ccoc5CC[C@]4(C)C2CC[C@@H]1C3 (stereo not given in full) : normalized growth was 1.01

Short answer for `Oc1cccc2cccnc12` : normalized growth was 0.0569

Short answer for `O=c1c(O)c(-c2ccccc2)oc2ccccc12` : normalized growth was 0.681

Short answer for `O=C(/C=C/c1ccccc1)c1ccc(O)cc1O` : normalized growth was 0.0578

Short answer for CC(C)C1CCC(C(=O)N[C@@H](Cc2ccccc2)C(=O)O)CC1 (stereo not given in full) : normalized growth was 0.985

Short answer for CC1(C)CC23C(=O)CCC(O)C2(C)CCC13 (stereo not given) : normalized growth was 0.992

Short answer for `CON` : normalized growth was 1.01

Short answer for CC(=CC1CCC(C)C2C1=C(C)CC2O)C(=O)O (stereo not given) : normalized growth was 1.02

Short answer for `Cn1c(=O)c2c(ncn2C)n(C)c1=O` : normalized growth was 0.976

Short answer for `Cn1c(=O)[nH]c2nc[nH]c2c1=O` : normalized growth was 0.991

Short answer for `O=C(O)c1cccnc1C(=O)O` : normalized growth was 1.01

Short answer for `O=C(O)CC[N+](=O)[O-]` : normalized growth was 1.01

Short answer for `O=C1C=CC(=O)c2c(O)c(Cl)c(Cl)c(O)c21` : normalized growth was 0.0649

###

- protocolDetails: chemical genetic growth profiling, strain panel (AID 1159580);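 note: tested at 20 µM; growth read once vehicle control cultures reached saturation at 30 °C; 1 = growth at the plate median or of vehicle wells; lower values mean less growth of the strain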
- cond: S. cerevisiae deletion strains, growth OD, locus YMR219W, strain ESC1, hits give low values
Hit rate of the full screen: of about 5,500 compounds, about 2,000 (36%) were called active. Another 18% or so got no clear call; they are omitted. The list shows a part of the results.
Answer each item with its documented normalized growth.

Short answer for O=C1CSC(c2cccnc2)N1c1ccc(C2CCCCC2)cc1 (stereo not drawn) : normalized growth was 1.02 (inactive)

Short answer for `O=C(OCCNc1ccc([N+](=O)[O-])cn1)c1ccc([N+](=O)[O-])o1` : normalized growth was 0.809 (active)

Short answer for `O=[N+]([O-])c1ccc(NCCCCCO)nc1` : normalized growth was 1.01 (inactive)

Short answer for `O=C(CNc1cccc(Cl)c1)c1ccc(Cl)cc1` : normalized growth was 0.964 (inactive)

Short answer for `FC(F)(F)c1cc(-c2ccco2)nc2cc(-c3ccco3)nn12` : normalized growth was 1 (inactive)

Short answer for `Cc1cc(C(F)(F)F)n2nc(-c3ccc(C(C)(C)C)cc3)cc2n1` : normalized growth was 0.999 (inactive)

Short answer for CCOC(=O)c1ccc(N2CC3CCCCN3C2c2ccc(Cl)c(Cl)c2)cc1 (stereo not drawn) : normalized growth was 0.984 (inactive)

Short answer for `CCOC(=O)c1ccc(Oc2ncc(C(F)(F)F)cc2Cl)cc1` : normalized growth was 0.992 (inactive)

Short answer for `Nc1ccc(Sc2cc(Cl)ccc2Cl)nc1` : normalized growth was 0.958 (inactive)

Short answer for `FC(F)(F)c1cc(-c2ccc(Cl)cc2)nc2cc(C3CC3)nn12` : normalized growth was 1.01 (inactive)

Short answer for O=C1CSC(c2cccnc2)N1c1ccc(Cl)cc1 (stereo not drawn) : normalized growth was 0.992 (inactive)

Short answer for `O=C1c2ccccc2C(=O)N1CNc1cccc(Cl)c1` : normalized growth was 1 (inactive)

Short answer for `CC(=O)OCCCCN1C(=O)c2ccccc2C1=O` : normalized growth was 1 (inactive)

###

- protocolDetails: chemical genetic growth profiling, strain panel (AID 1159580);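 note: tested at 20 µM; growth read once vehicle control cultures reached saturation at 30 °C; 1 = growth at the plate median or of vehicle wells; lower values mean less growth of the strain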
- cond: S. cerevisiae deletion strains, growth OD, locus YAL030W, strain snc1
Hit rate of the full screen: of about 5,500 compounds, about 2,000 (36%) were called active. Another 18% or so got no clear call; they are omitted. Rule as the data show it: active = normalized growth mostly below about 0.91 (no sharp cut-off); inconclusive = no clear call, values can overlap the other calls; inactive = mostly above about 0.92. This is one part of the list.
Select the correct class. Options are Y (active), N (inactive) and nothing else.

Fill in: this test's call for `O=C1C=C(O)c2ccccc2C1=O` is ___
N

Fill in: this test's call for `O=C1c2ccccc2C(=O)c2ccccc21` is ___
N

Fill in: this test's call for `NNCc1ccccc1` is ___
N

Fill in: this test's call for `O=C1C=CC(=O)c2ccccc21` is ___
Y

Fill in: this test's call for `O=c1c(O)cccc2cc(O)c(O)c(O)c12` is ___
Y

Fill in: this test's call for `O=c1c(O)c(-c2ccccc2)oc2ccccc12` is ___
Y

Fill in: this test's call for `O=C1NS(=O)(=O)c2ccccc21` is ___
N

Fill in: this test's call for `COc1ccc(-c2c(O)c3c(OC)c4c(cc3oc2=O)OC(C)(C)C=C4)cc1` is ___
N

Fill in: this test's call for `Cn1c(=O)[nH]c2ncn(C)c2c1=O` is ___
N

Fill in: this test's call for `O=C(O)c1cc(=O)c2ccccc2[nH]1` is ___
N

Fill in: this test's call for `C=CC[C@@H]1/C=C(\C)C[C@H](C)C[C@H](OC)[C@H]2O[C@@](O)(C(=O)C(=O)N3CCCC[C@H]3C(=O)O[C@H](/C(C)=C/[C@@H]3CC[C@@H](O)[C@H](OC)C3)[C@H](C)[C@@H](O)CC1=O)[C@H](C)C[C@@H]2OC` is ___
N

Fill in: this test's call for `CCC[C@@H]1C[C@@H](C(=O)N[C@H]([C@H]2O[C@H](SC)[C@H](O)[C@@H](O)[C@H]2O)[C@H](C)O)N(C)C1` is ___
N

Fill in: this test's call for `O=C(/C=C/c1ccccc1)c1ccc(O[C@@H]2O[C@H](CO)[C@@H](O)[C@H](O)[C@H]2O)cc1O` is ___
N

Fill in: this test's call for CCC1(C2=NCCN2)Cc2ccccc2O1 (configuration not stated) is ___
N

Fill in: this test's call for CO/N=C(/C(=O)NC1C(=O)N2C(C(=O)OCOC(=O)C(C)(C)C)=C(/C=C\c3scnc3C)CSC12)c1csc(N)n1 (configuration not stated) is ___
N

Fill in: this test's call for `OC[C@H]1O[C@@H](Oc2ccc(O)cc2)[C@H](O)[C@@H](O)[C@@H]1O` is ___
N

Fill in: this test's call for C[N+]12CCC(CC1)C(OC(=O)C(O)(c1ccccc1)c1ccccc1)C2 (configuration not stated) is ___
N

Fill in: this test's call for `O=C1C=CC(=O)c2c(O)cccc21` is ___
N

Fill in: this test's call for `CC(C)[C@@H]1CC[C@@H](C)C[C@H]1OC(=O)c1ccccc1` is ___
N

Fill in: this test's call for `COc1cc(OC)c2c(OC)c(-c3ccc4c(c3)OCO4)c(=O)oc2c1` is ___
N

Fill in: this test's call for `O=C(/C=C/c1ccc(O)cc1)c1ccccc1O` is ___
Y

Fill in: this test's call for `O=C(CCc1ccc(O)cc1)c1c(O)cc(O)cc1O` is ___
N

Fill in: this test's call for COc1ccccc1OCC(O)COC(N)=O (configuration not stated) is ___
N

Fill in: this test's call for Oc1cc2c(cc1O)C(c1ccccc1)CNCC2 (configuration not stated) is ___
N

Fill in: this test's call for `CCCCCCCCCCCCCCCC(=O)OC[C@H](NC(=O)C(Cl)Cl)[C@H](O)c1ccc([N+](=O)[O-])cc1` is ___
N

Fill in: this test's call for `CC(C)N1C(=O)c2ccccc2NS1(=O)=O` is ___
N

Fill in: this test's call for `CC(=O)NS(=O)(=O)c1ccc(N)cc1` is ___
N

Fill in: this test's call for `O=C(/C=C/c1ccc(O)cc1)c1ccc(O)cc1O` is ___
N

Fill in: this test's call for CC(=CC1CCC(C)C2CCC(C)=C12)C(=O)O (configuration not stated) is ___
N

Fill in: this test's call for `COc1ccc([C@@H](C)C(=O)c2ccc(O)cc2O)cc1` is ___
N

Fill in: this test's call for O=C(c1ccccc1)c1ccc2n1CCC2C(=O)O (configuration not stated) is ___
N

Fill in: this test's call for `Cn1c(=O)[nH]c2nc[nH]c2c1=O` is ___
N

Fill in: this test's call for `O=C1C=CC(=O)c2c(O)c(Cl)c(Cl)c(O)c21` is ___
Y

Fill in: this test's call for CC(=O)Oc1c(C)c(C)c2c(c1C)CCC(C)(CCCC(C)CCCC(C)CCCC(C)C)O2 (configuration not stated) is ___
N

Fill in: this test's call for `CON` is ___
N

Fill in: this test's call for `O=c1c(O)c(-c2ccccc2)oc2cc(O)ccc12` is ___
Y

Fill in: this test's call for `O=C(O)CCC(=O)OC[C@@H](NC(=O)C(Cl)Cl)[C@H](O)c1ccc([N+](=O)[O-])cc1` is ___
N

Fill in: this test's call for `COc1ccc(NS(=O)(=O)c2ccc(N)cc2)nn1` is ___
N

Fill in: this test's call for `CC(=O)Nc1c(I)cc(I)c(C(=O)O)c1I` is ___
N

Fill in: this test's call for CC1CC(OC(=O)c2ccccc2O)CC(C)(C)C1 (configuration not stated) is ___
N

Fill in: this test's call for ClC1C(Cl)C(Cl)C(Cl)C(Cl)C1Cl (configuration not stated) is ___
N

Fill in: this test's call for CC(=CC1CCC(C)C2C1=C(C)CC2O)C(=O)O (configuration not stated) is ___
N

Fill in: this test's call for `Cn1c(=O)c2c(ncn2C)n(C)c1=O` is ___
N

Fill in: this test's call for CC(NC(C)(C)C)C(=O)c1cccc(Cl)c1 (configuration not stated) is ___
N

Fill in: this test's call for `CCCCN(CC)c1c([N+](=O)[O-])cc(C(F)(F)F)cc1[N+](=O)[O-]` is ___
N

Fill in: this test's call for `O=C(O)CC[N+](=O)[O-]` is ___
N

Fill in: this test's call for CC1(C)CC23C(=O)CCC(O)C2(C)CCC13 (configuration not stated) is ___
N
